target_system: RORγ-LBD (Homo sapiens)
assay_summary: RORγ-Ligand Binding Domain (LBD) TR-FRET Assay
measured_metric: EC50

Check out these entries, answers already filled in.
O=C(O)CC[C@H]1CN(S(=O)(=O)c2cccc(C(F)(F)F)c2)c2cc(-c3cc(F)cc(F)c3Cl)cc(F)c2O1 [Compound 22H]; < 0.5 µM
CN(C)c1cccc(-c2ccc3c(c2)N(S(=O)(=O)c2cccc(C(F)(F)F)c2)C[C@H](CCCOc2noc(=O)[nH]2)O3)n1; < 0.5 µM
CC(=O)OCC(=O)NC[C@H]1CN(S(=O)(=O)c2cccc(C(F)(F)F)c2)c2cc(-c3cc(F)ccc3F)ccc2O1 [Compound 30AY]; < 0.5 µM
O=C(NC[C@H]1CN(S(=O)(=O)c2cccc(C(F)(F)F)c2)c2cc(-c3cc(F)ccc3F)ccc2O1)C1COC1 [Compound 30Z]; < 0.5 µM

Prompt: // EC50 lookup, key: Cc1cnc(-c2ccc3c(c2)N(S(=O)(=O)c2cccc(C(F)(F)F)c2)C[C@H](CCC(=O)O)O3)o1
Response: 0.5 to 5 µM

Prompt: // next record N#CCC(=O)NC[C@H]1CN(S(=O)(=O)c2cccc(C(F)(F)F)c2)c2cc(-c3cccc(C(F)(F)F)n3)ccc2O1 [Compound 30BH]
Response: < 0.5 µM

====

target_system: Gal4-RORγ-LBD (Homo sapiens, UniProt P51449)
Construct: expressed in transfected cells; host or cells: HEK-293 cells (pcDNA3.1neo plasmid)
assay_summary: Gal4-RORγ Luciferase Reporter Assay in HEK-293T Cells
Type: cell-based
conditions: HEK-293 cells, 2 μM ursolic acid
measured_metric: EC50

Check out these entries, answers already filled in.
COc1cc(F)cc(-c2ccc3c(c2)N(S(=O)(=O)c2cccc(C(F)(F)F)c2)C[C@H](CC2(C(=O)O)CCOCC2)O3)c1F [Compound 78S]; < 500 nM
CC(=O)NC(C)(C)C[C@@H]1CN(S(=O)(=O)c2cccc(C(F)(F)F)c2)c2cc(-c3cc(F)ccc3F)ccc2O1 [Compound 30DC]; 500 to 5000 nM
CC(C)(C[C@H]1CN(S(=O)(=O)c2cccc(C(F)(F)F)c2)c2cc(-c3cccc(Cl)c3)ccc2O1)C(=O)O [Compound 32W]; < 500 nM
O=S(=O)(c1cccc(C(F)(F)F)c1)N1C[C@H](CC2(CO)COC2)Oc2ccc(-c3cc(F)cc(OC(F)F)c3)cc21; < 500 nM
O=C(NC[C@H]1CN(S(=O)(=O)c2cccc(C(F)(F)F)c2)c2cc(-c3cccc(F)c3Cl)ccc2O1)C1CC1 [Compound 30CF]; < 500 nM

Please turn your attention to the following entry.
Prompt: // EC50 lookup, key: COc1cc(S(=O)(=O)N2C[C@H](CNS(=O)(=O)N(C)CCO)Oc3ccc(-c4cc(F)ccc4F)cc32)ccc1F [Compound 45D]
Response: < 500 nM

====

target_system: Gal4-RORγ-LBD (Homo sapiens)
Construct: expressed in transfected cells; host or cells: HEK-293 cells (pcDNA3.1neo plasmid)
Sequence (P51449 269-508 limits assumed): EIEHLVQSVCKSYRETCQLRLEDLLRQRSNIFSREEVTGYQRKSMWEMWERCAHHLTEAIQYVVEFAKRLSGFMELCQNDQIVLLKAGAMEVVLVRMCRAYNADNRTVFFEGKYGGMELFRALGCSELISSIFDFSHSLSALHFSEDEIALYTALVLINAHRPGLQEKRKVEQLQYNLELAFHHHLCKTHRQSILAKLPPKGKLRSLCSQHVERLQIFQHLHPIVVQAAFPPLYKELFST
assay_summary: Gal4-RORγ Luciferase Reporter Assay in HEK-293T Cells
Format: cell-based
conditions: HEK-293 cells, luciferase reporter, with 2 μM ursolic acid
pEC50: −log10 of the molar value.
The entries below come with measured pEC50 values attached.

Prompt: // pEC50 lookup, key: NCC[C@H]1CN(S(=O)(=O)c2cccc(C(F)(F)F)c2)c2cc(-c3cc(F)ccc3F)ccc2O1
Response: 5.30 to 6.30

Prompt: // next record O=S(=O)(c1cccc(C(F)(F)F)c1)N1C[C@H](CCCO)Oc2ccc(-c3ccc(F)cc3F)cc21 [Compound 34A]
Response: > 6.30

Prompt: // next record CC(C)(F)C(=O)NC[C@H]1CN(S(=O)(=O)c2cccc(C(F)(F)F)c2)c2cc(-c3cc(F)ccc3F)ccc2O1 [Compound 30BE]
Response: > 6.30

Prompt: // next record COc1cc(F)cc(-c2ccc3c(c2)N(S(=O)(=O)c2cccc(C(F)(F)F)c2)C[C@H](CCc2n[nH]c(=O)o2)O3)c1F [Compound 28G]
Response: > 6.30
